Biological target: S. aureus TopoIV enzyme (Staphylococcus aureus, UniProt P0C1S7)
Sequence (P0C1S7 whole entry): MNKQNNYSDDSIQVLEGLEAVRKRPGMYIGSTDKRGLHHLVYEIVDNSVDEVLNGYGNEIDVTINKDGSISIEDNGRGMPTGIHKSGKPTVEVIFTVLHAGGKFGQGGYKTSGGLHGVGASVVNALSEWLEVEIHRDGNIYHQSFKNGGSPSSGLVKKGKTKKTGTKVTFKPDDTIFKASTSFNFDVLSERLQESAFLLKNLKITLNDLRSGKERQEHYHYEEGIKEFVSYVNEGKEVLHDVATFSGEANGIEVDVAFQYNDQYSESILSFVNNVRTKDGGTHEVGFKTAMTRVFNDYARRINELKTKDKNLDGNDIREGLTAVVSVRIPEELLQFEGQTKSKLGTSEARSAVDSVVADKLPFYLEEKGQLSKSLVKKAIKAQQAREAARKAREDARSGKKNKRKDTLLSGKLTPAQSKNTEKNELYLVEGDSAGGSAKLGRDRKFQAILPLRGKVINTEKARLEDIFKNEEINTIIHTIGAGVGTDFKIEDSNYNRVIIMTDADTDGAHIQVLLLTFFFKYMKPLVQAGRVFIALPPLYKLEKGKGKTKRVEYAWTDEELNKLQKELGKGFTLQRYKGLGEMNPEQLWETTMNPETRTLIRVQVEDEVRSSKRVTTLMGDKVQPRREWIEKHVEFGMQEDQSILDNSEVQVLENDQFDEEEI
Sequence (P0C1U9 whole entry partner): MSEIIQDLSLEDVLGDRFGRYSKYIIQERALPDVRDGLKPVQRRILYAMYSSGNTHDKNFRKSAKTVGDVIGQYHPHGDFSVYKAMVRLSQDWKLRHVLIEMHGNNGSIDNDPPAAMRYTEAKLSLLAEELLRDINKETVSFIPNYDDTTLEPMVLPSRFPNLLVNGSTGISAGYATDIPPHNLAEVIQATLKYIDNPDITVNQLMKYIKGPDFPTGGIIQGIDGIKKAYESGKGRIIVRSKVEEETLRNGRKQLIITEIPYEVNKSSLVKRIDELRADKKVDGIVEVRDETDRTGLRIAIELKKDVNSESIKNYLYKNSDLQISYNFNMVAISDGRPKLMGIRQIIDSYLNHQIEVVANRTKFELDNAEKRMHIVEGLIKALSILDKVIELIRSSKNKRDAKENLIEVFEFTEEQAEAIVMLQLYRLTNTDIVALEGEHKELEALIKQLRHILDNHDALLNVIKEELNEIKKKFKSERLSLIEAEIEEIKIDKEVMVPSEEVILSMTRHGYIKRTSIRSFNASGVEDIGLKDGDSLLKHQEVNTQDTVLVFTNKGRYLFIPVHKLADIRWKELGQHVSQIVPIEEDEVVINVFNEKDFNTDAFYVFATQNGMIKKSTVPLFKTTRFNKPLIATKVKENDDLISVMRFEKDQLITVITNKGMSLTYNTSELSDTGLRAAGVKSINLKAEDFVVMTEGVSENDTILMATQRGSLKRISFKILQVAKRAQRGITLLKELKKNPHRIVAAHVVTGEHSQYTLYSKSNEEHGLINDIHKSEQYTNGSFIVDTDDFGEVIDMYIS
Observed Property: pIC50
One number for each entry, as −log10 of the molar value.

Record CCNC(=O)Nc1nc2cc(-c3cnc(C(C)(C)OP(=O)([O-])[O-])nc3)c(F)c([C@H]3CCCO3)c2[nH]1.[Na+].[Na+] [Compound W, phosphate] / S. aureus TopoIV enzyme (Staphylococcus aureus, UniProt P0C1S7), pIC50 recorded as 6.82

----------
Experiment: Pharmacokinetics, rat oral study
Assay type: in vivo, Sprague Dawley rats
Settings: male, Sprague Dawley, in vivo, 100 mg/kg, rat plasma, Compound W dosed orally 100 mg/kg in 0.5% MC, label = analyte, read-out: AUC
Description: Pharmacokinetic Data Analysis. Statistical Data Analysis. Plasma concentration vs. time data was subjected to noncompartmental pharmacokinetic (PK) analysis.
Observed Property: AUC (ng·h/mL)
Answers are plain numbers, in ng·h/mL.

get_value(item= CCNC(=O)Nc1nc2cc(-c3cnc(C(C)(C)O)nc3)c(F)c([C@H]3CCCO3)c2[nH]1 [Compound 23] , readout=AUC) returns 77100

----------
Assay: Pharmacokinetics, rat oral study
Assay type: in vivo, Sprague Dawley rats
Settings: male, Sprague Dawley, plasma, 100 mg/kg, Compound W dosed orally 100 mg/kg in 0.5% MC, label = analyte, read-out: AUCextrap
Observed Property: AUC (ng·h/mL)
Give bare numbers, in ng·h/mL.

get_value(item= CCNC(=O)Nc1nc2cc(-c3cnc(C(C)(C)O)nc3)c(F)c([C@H]3CCCO3)c2[nH]1 [Compound 23] , readout=AUC) returns 77400

----------
Test: Pharmacokinetics, monkey oral study
Format: in vivo, cynomolgus monkeys
Conditions: male, cynomolgus monkey, plasma, po, 300 mg/kg, monkey plasma; Compound W dosed PO 300 mg/kg in 0.5% MC; label = analyte; read-out: AUCextrap
Source text: Pharmacokinetic Data Analysis. Statistical Data Analysis. Plasma concentration vs. time data was subjected to noncompartmental pharmacokinetic (PK) analysis.
Observed Property: AUC (µg·h/mL)
Numbers only, in µg·h/mL.

get_value(item= CCNC(=O)Nc1nc2cc(-c3cnc(C(C)(C)O)nc3)c(F)c([C@H]3CCCO3)c2[nH]1 [Compound 23] , readout=AUC) returns 155

----------
Assay: Pharmacokinetics, monkey oral study
Type: in vivo, cynomolgus monkeys
Conditions: male, cynomolgus monkey, plasma, po, 30 mg/kg, monkey plasma; Compound W dosed PO 30 mg/kg in 0.5% MC; label = analyte; read-out: AUC
Observed Property: AUC (ng·h/mL)
Numbers only, in ng·h/mL.

get_value(item= CCNC(=O)Nc1nc2cc(-c3cnc(C(C)(C)OP(=O)([O-])[O-])nc3)c(F)c([C@H]3CCCO3)c2[nH]1.[Na+].[Na+] , readout=AUC) returns 45.3

----------
Biological target: S. aureus TopoIV enzyme (Staphylococcus aureus, UniProt P0C1S7)
Observed Property: pKi
Numbers only, as −log10 of the molar value.

get_value(item= CCNC(=O)Nc1nc2cc(-c3cnc(C(C)(C)OP(=O)([O-])[O-])nc3)c(F)c([C@H]3CCCO3)c2[nH]1.[Na+].[Na+] [Compound W, phosphate] , readout=pKi) returns 7.52

----------
Experiment: Pharmacokinetics, rat oral study
Type: in vivo, Sprague Dawley rats
Details: male, Sprague Dawley, plasma, 3 mg/kg, Compound W dosed orally 3 mg/kg in 0.5% MC, label = analyte, read-out: AUCextrap
Observed Property: AUC (ng·h/mL)
Answers are plain numbers, in ng·h/mL.

get_value(item= CCNC(=O)Nc1nc2cc(-c3cnc(C(C)(C)O)nc3)c(F)c([C@H]3CCCO3)c2[nH]1 [Compound 23] , readout=AUC) returns 314

----------
Assay: Pharmacokinetics, rat oral study
Format: in vivo, Sprague Dawley rats
Settings: male, Sprague Dawley, plasma, 100 mg/kg, Compound W dosed orally 100 mg/kg in 0.5% MC, label = analyte
Observed Property: Tmax

get_value(item= CCNC(=O)Nc1nc2cc(-c3cnc(C(C)(C)OP(=O)([O-])[O-])nc3)c(F)c([C@H]3CCCO3)c2[nH]1.[Na+].[Na+] , readout=Tmax) returns 48 min
